target: phosphorylated VEGF-R2Δ50 (FLVK-P) (Homo sapiens, UniProt P35968, DEL940-989/E990V); construct: VEGF-R2Δ50 contains residues 806-939 and 990-1171; made in house; host or cells: baculovirus/insect cells; assay: VEGF-R2 coupled spectrophotometric assay, phosphorylated construct (FLVK-P); assay type: biochemical
Sequence (P35968 with tags, fused parts or gaps DEL940-989/E990V limits assumed): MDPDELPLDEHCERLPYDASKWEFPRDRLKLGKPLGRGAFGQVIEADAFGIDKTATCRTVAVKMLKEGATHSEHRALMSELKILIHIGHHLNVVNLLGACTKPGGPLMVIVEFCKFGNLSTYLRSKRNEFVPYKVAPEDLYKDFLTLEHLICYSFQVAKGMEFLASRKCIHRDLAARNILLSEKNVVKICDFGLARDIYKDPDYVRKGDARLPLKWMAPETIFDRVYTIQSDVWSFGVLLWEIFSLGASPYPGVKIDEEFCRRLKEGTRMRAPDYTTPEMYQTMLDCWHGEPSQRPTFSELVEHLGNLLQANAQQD
Structures can show the parent of a compound that is named as a salt.

[
  {
    "MOLECULE": "COc1cc(/C=C/c2cc(CSc3cccc(C(=O)Nc4ccc5nc(C)ccc5c4)c3)[nH]n2)ccc1O [Example F-1]",
    "UOM": "nM",
    "Ki": 2.36
  },
  {
    "MOLECULE": "CC(C)(C)c1cccc(NC(=O)c2cccc(CSc3ncnc4[nH]ncc34)c2)c1 [Example B-18]",
    "UOM": "nM",
    "Ki": 5.84
  },
  {
    "MOLECULE": "COc1cc(/C=C/c2cc(CNc3cccc(C(=O)Nc4ccc(C(C)C)c(C)c4)c3)[nH]n2)ccc1O [Example I-1]",
    "UOM": "nM",
    "Ki": 8.84
  },
  {
    "MOLECULE": "Cc1c(Br)cc(NC(=O)c2cccc(CSc3cnccn3)c2)cc1Br [Example A-8]",
    "UOM": "nM",
    "Ki": 3.36
  },
  {
    "MOLECULE": "Cc1ccc2cc(NC(=O)c3cccc(SCc4cc(-c5ccccc5)n[nH]4)c3)ccc2n1 [Example F-2]",
    "UOM": "nM",
    "Ki": 14.7
  },
  {
    "MOLECULE": "COc1ccc(Nc2cc(CCc3cccc(C(=O)Nc4ccc(N(C)C)c(C(F)(F)F)c4)c3)[nH]n2)cn1 [Example G-5]",
    "UOM": "nM",
    "Ki": 1.86
  },
  {
    "MOLECULE": "Cc1cc(NC(=O)c2ccc(F)c(OCc3cncc4ccccc34)c2)ccc1C(C)C [Example K-10]",
    "UOM": "nM",
    "Ki": 2.19
  },
  {
    "MOLECULE": "COc1ccc(Nc2cc(CCc3cccc(C(=O)Nc4ccc(N5CCNCC5)c(C(F)(F)F)c4)c3)[nH]n2)cn1 [Example G-10]",
    "UOM": "nM",
    "Ki": 2.6
  },
  {
    "MOLECULE": "CNS(=O)(=O)c1ccc(Nc2cc(CCc3cccc(C(=O)Nc4ccc(C(C)C)c(C)c4)c3)[nH]n2)cc1 [Example G-1]",
    "UOM": "nM",
    "Ki": 0.592
  },
  {
    "MOLECULE": "N#Cc1ccc(NC(=O)c2cccc(CSc3ncnc4[nH]ncc34)c2)cc1C(F)(F)F [Example B-12]",
    "UOM": "nM",
    "Ki": 28
  },
  {
    "MOLECULE": "Cc1ccc2cc(NC(=O)c3cccc(CCc4cccnc4)c3)ccc2n1 [Example U-1, hydrochloride]",
    "UOM": "nM",
    "Ki": 68
  },
  {
    "MOLECULE": "Cc1ccc2cc(NC(=O)c3cccc(SCc4cnccn4)c3)ccc2n1 [Example D-2]",
    "UOM": "nM",
    "Ki": 1640
  },
  {
    "MOLECULE": "Cc1ccc2cc(NC(=O)c3cccc(OCc4cccnc4)c3)ccc2n1 [Example K-9]",
    "UOM": "nM",
    "Ki": 109
  },
  {
    "MOLECULE": "CC1(C)OC(C)(C)c2cc(NC(=O)c3cccc(OCc4cncc5ccccc45)c3)ccc21 [Example R-10]",
    "UOM": "nM",
    "Ki": 12.1
  },
  {
    "MOLECULE": "COc1ccccc1NC(=O)c1cccc(CSc2ncnc3[nH]ncc23)c1 [Example B-9]",
    "UOM": "nM",
    "Ki": 17000
  },
  {
    "MOLECULE": "Cc1ccc2cc(NC(=O)c3cccc(CCc4cc(Nc5ccccc5)n[nH]4)c3)ccc2n1 [Example G-2]",
    "UOM": "nM",
    "Ki": 1.78
  },
  {
    "MOLECULE": "O=C(Nc1cccc(OC(F)(F)F)c1)c1cccc(CSc2ncnc3[nH]ncc23)c1 [Example B-20]",
    "UOM": "nM",
    "Ki": 26
  }
]

====

target: CDK4/Cyclin D3 complex (Homo sapiens, UniProt P11802); construct: made in house; host or cells: insect cells co-infected with baculovirus vectors; assay: CDK4/Cyclin D assay ([32P]ATP incorporation into Rb fragment); type: biochemical; settings: μM
Sequence (P11802 whole entry, the tested form may be a part): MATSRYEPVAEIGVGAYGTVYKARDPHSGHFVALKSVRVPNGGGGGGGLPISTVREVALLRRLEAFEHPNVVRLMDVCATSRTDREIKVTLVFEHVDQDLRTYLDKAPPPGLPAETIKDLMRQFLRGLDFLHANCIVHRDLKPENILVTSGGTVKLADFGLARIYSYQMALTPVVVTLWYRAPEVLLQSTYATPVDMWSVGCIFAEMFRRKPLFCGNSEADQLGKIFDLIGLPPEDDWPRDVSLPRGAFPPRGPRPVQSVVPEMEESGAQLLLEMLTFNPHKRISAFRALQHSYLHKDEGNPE
Sequence (P30281 whole entry partner, the tested form may be a part): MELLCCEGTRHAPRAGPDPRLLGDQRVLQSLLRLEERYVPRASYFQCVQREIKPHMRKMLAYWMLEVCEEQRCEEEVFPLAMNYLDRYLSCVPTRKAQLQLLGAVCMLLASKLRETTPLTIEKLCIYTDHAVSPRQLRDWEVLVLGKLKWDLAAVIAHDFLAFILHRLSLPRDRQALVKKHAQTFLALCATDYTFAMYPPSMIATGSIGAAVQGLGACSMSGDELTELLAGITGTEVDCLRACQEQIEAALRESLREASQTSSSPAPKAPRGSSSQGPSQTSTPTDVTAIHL
READOUT_NAME: Ki

[
  {
    "SMILES_CODE": "COc1cc(NC(=O)c2cccc(SCc3cc(Nc4ccccc4)n[nH]3)c2)cc(OC)c1OC",
    "TEST_SYSTEM": "CDK4/Cyclin D3 complex (Homo sapiens, UniProt P11802)",
    "READOUT_VALUE": "> 100 µM"
  }
]

====

tested on: human umbilical vein endothelial cells (HUVEC); experiment: HUVEC proliferation assay (VEGF-stimulated, MTT); assay type: cell-based; details: Homo sapiens, HUVEC; read-out: HUVEC IC50
READOUT_NAME: IC50 (nM)

[
  {
    "SMILES_CODE": "Cc1ccc2cc(NC(=O)c3cccc(CCc4cc(Nc5ccccc5)n[nH]4)c3)ccc2n1",
    "TEST_SYSTEM": "human umbilical vein endothelial cells (HUVEC)",
    "READOUT_VALUE": 120
  },
  {
    "SMILES_CODE": "Cc1cc(C)c2cc(NC(=O)c3cccc(OCc4cncc5ccccc45)c3)ccc2n1",
    "TEST_SYSTEM": "human umbilical vein endothelial cells (HUVEC)",
    "READOUT_VALUE": 89
  },
  {
    "SMILES_CODE": "Cc1c(Br)cc(NC(=O)c2cccc(OCc3cncc4ccccc34)c2)cc1Br",
    "TEST_SYSTEM": "human umbilical vein endothelial cells (HUVEC)",
    "READOUT_VALUE": 110
  },
  {
    "SMILES_CODE": "CC(C)c1cccc(NC(=O)c2cccc(CSc3ncnc4[nH]ncc34)c2)c1",
    "TEST_SYSTEM": "human umbilical vein endothelial cells (HUVEC)",
    "READOUT_VALUE": 120
  },
  {
    "SMILES_CODE": "Cc1cc(NC(=O)c2cccc(CCc3cccnc3)c2)ccc1C(C)C",
    "TEST_SYSTEM": "human umbilical vein endothelial cells (HUVEC)",
    "READOUT_VALUE": 100
  }
]
